Reported pKi values follow for various compounds
Study target: Amyloid-beta precursor protein (Homo sapiens)
Sequence (P05067 whole entry): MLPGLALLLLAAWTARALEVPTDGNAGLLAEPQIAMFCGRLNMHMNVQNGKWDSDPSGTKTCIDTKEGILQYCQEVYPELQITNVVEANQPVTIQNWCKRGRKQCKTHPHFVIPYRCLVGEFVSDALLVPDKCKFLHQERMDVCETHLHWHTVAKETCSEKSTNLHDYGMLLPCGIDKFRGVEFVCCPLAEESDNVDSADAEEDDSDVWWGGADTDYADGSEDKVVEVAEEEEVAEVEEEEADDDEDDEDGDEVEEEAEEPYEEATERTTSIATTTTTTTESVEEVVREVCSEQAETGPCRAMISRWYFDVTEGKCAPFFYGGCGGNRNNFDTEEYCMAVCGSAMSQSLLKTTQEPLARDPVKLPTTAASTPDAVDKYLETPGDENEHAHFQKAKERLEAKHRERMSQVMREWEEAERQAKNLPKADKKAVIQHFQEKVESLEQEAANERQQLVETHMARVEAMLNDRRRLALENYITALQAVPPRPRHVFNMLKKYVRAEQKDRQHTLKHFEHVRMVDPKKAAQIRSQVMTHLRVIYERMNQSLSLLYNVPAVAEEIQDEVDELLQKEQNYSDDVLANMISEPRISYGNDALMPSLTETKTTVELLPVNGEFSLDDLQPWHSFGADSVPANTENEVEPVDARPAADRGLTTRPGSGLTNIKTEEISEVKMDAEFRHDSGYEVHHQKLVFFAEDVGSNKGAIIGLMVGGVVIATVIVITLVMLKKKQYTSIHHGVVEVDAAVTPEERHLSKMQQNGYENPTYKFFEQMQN
Measurement protocol: Displacement of [125I]1-Iodo-4-((4-methoxyphenoxy)methyl)benzene from amyloid beta42 (unknown origin) after 3 hrs by gamma counting
Condition description: read-out: Ki
pKi: −log10 of the molar value.
Measure name: pKi

[
  {
    "Mol": "COc1ccc(OCc2ccc(I)cc2)cc1",
    "Measure name": "pKi",
    "Reported measurement": 7.61
  },
  {
    "Mol": "COc1ccccc1OCc1ccc(I)cc1",
    "Measure name": "pKi",
    "Reported measurement": 5.29
  },
  {
    "Mol": "Nc1cccc(OCc2ccc(I)cc2)c1",
    "Measure name": "pKi",
    "Reported measurement": 5.81
  },
  {
    "Mol": "CC(C)(C)c1ccc(OCc2ccc(I)cc2)cc1",
    "Measure name": "pKi",
    "Reported measurement": 6.93
  },
  {
    "Mol": "Ic1ccc(COc2ccc(I)cc2)cc1",
    "Measure name": "pKi",
    "Reported measurement": 7.66
  },
  {
    "Mol": "CNc1cccc(OCc2ccc(I)cc2)c1",
    "Measure name": "pKi",
    "Reported measurement": 6.23
  },
  {
    "Mol": "CN(C)c1cccc(OCc2ccc(I)cc2)c1",
    "Measure name": "pKi",
    "Reported measurement": 6.05
  },
  {
    "Mol": "Oc1ccc(OCc2ccc(I)cc2)cc1",
    "Measure name": "pKi",
    "Reported measurement": 6.95
  },
  {
    "Mol": "COc1cccc(OCc2ccc(I)cc2)c1",
    "Measure name": "pKi",
    "Reported measurement": 6.88
  },
  {
    "Mol": "Oc1cccc(OCc2ccc(I)cc2)c1",
    "Measure name": "pKi",
    "Reported measurement": 6.41
  },
  {
    "Mol": "CNc1ccc(OCc2ccc(I)cc2)cc1",
    "Measure name": "pKi",
    "Reported measurement": 7.32
  },
  {
    "Mol": "Nc1ccc(OCc2ccc(I)cc2)cc1",
    "Measure name": "pKi",
    "Reported measurement": 6.39
  },
  {
    "Mol": "CNc1ccccc1OCc1ccc(I)cc1",
    "Measure name": "pKi",
    "Reported measurement": 4.68
  },
  {
    "Mol": "Oc1ccccc1OCc1ccc(I)cc1",
    "Measure name": "pKi",
    "Reported measurement": 5.55
  },
  {
    "Mol": "Brc1ccc(OCc2ccc(I)cc2)cc1",
    "Measure name": "pKi",
    "Reported measurement": 7.92
  },
  {
    "Mol": "COc1ccc(SCc2ccc(I)cc2)cc1",
    "Measure name": "pKi",
    "Reported measurement": 6.28
  },
  {
    "Mol": "Ic1ccc(COc2ccccc2)cc1",
    "Measure name": "pKi",
    "Reported measurement": 7.10
  },
  {
    "Mol": "Nc1ccccc1OCc1ccc(I)cc1",
    "Measure name": "pKi",
    "Reported measurement": 5.99
  },
  {
    "Mol": "Fc1ccc(OCc2ccc(I)cc2)cc1",
    "Measure name": "pKi",
    "Reported measurement": 6.97
  },
  {
    "Mol": "COc1ccc(COc2ccc(I)cc2)cc1",
    "Measure name": "pKi",
    "Reported measurement": 7.31
  },
  {
    "Mol": "CN(C)c1ccc(OCc2ccc(I)cc2)cc1",
    "Measure name": "pKi",
    "Reported measurement": 7.75
  },
  {
    "Mol": "Clc1ccc(OCc2ccc(I)cc2)cc1",
    "Measure name": "pKi",
    "Reported measurement": 7.73
  }
]
